Experiment: Blood pharmacokinetics after a single intraperitoneal dose
Assay type: in vivo, male CD1 mice
Settings: male, CD1, mouse, in vivo, 52 mg/kg, 52 mg/kg IP, 0.5 hr; read-out: Blood Concentration, individual animal
experimental endpoint: concentration at 0.5 hr (ng/mL)

• COc1ccc(Cn2ccc3ccc(C(=O)NO)cc32)cc1 = 3230

###

Assay: Plasma pharmacokinetics after a single intraperitoneal dose
Format: in vivo, male CD1 mice
Settings: male, CD1, mouse, plasma, intraperitoneal, 10 mg/kg, 10 mg/kg IP, 0.5 hr; read-out: Plasma Concentration, Mean
experimental endpoint: concentration at 0.5 hr (ng/mL)

* COc1ccc(Cn2ccc3ccc(C(=O)NS(C)(=O)=O)cc32)cc1 | 41200

###

Experiment: Plasma pharmacokinetics after a single intraperitoneal dose
Format: in vivo, male CD1 mice
Settings: male, CD1, mouse, plasma, intraperitoneal, 50 mg/kg, 50 mg/kg IP, 0.08 hr; read-out: Plasma Concentration, Mean
Procedure: The objective of this example was to investigate the plasma pharmacokinetics of UPHH-000171 following a single intraperitoneal dose administration to male CD1 mice at 10 and 50 mg/kg. Eighteen male mice were divided in to two groups with nine animals in each group, Animals in Group 1 and Group 2 were administered with solution formulation of UPHH-000171 in 5% NMP, 25% Solutol HS-15 and 70% normal saline intraperitoneally at 10 and 50 mg/kg dose, respectively. […]
experimental endpoint: concentration at 0.08 hr (µg/mL)

- COc1ccc(Cn2ccc3ccc(C(=O)NS(C)(=O)=O)cc32)cc1: 79.6

###

Assay: Plasma pharmacokinetics after a single intraperitoneal dose
Type: in vivo, male CD1 mice
Conditions: male, CD1, mouse; 10 mg/kg IP, plasma
experimental endpoint: Tmax (h)

- COc1ccc(Cn2ccc3ccc(C(=O)NS(C)(=O)=O)cc32)cc1 [UPHH-000171]: 4

###

Experiment: Blood pharmacokinetics after a single intraperitoneal dose
Assay type: in vivo, male CD1 mice
Details: male, CD1, mouse, in vivo; 10.4 mg/kg IP, blood, mean
experimental endpoint: Tmax

* COc1ccc(Cn2ccc3ccc(C(=O)NO)cc32)cc1 | 15 min

###

Test: Blood pharmacokinetics after a single intraperitoneal dose
Type: in vivo, male CD1 mice
Settings: male, CD1, mouse, in vivo, 10.4 mg/kg, 10.4 mg/kg IP, 0.5 hr; read-out: Blood Concentration, individual animal
experimental endpoint: concentration at 0.5 hr (ng/mL)

• COc1ccc(Cn2ccc3ccc(C(=O)NO)cc32)cc1 [UPHH-123] = 519

###

Assay: Blood pharmacokinetics after a single intraperitoneal dose
Type: in vivo, male CD1 mice
Conditions: male, CD1, mouse, in vivo, 52 mg/kg, 52 mg/kg IP, 24 hr; value excluded from data analysis
experimental endpoint: concentration at 24 hr (ng/mL)

- COc1ccc(Cn2ccc3ccc(C(=O)NO)cc32)cc1: 10.4

###

Test: Blood pharmacokinetics after a single intraperitoneal dose
Format: in vivo, male CD1 mice
Conditions: male, CD1, mouse, in vivo, 52 mg/kg, 52 mg/kg IP, 0.08 hr; read-out: Blood Concentration, Mean
experimental endpoint: concentration at 0.08 hr (ng/mL)

* COc1ccc(Cn2ccc3ccc(C(=O)NO)cc32)cc1 [UPHH-123] | 6160

###

Assay: Plasma pharmacokinetics after a single intraperitoneal dose
Type: in vivo, male CD1 mice
Conditions: male, CD1, mouse, plasma, intraperitoneal, 50 mg/kg, 50 mg/kg IP, 0.5 hr; read-out: Plasma Concentration, Mean
experimental endpoint: concentration at 0.5 hr

• COc1ccc(Cn2ccc3ccc(C(=O)NS(C)(=O)=O)cc32)cc1 = 94 µg/mL
